// provenance: ChEMBL document CHEMBL4014314

target: DNA (cytosine-5)-methyltransferase 1 (Homo sapiens); assay: Inhibition of full length His-tagged human DNMT1 using SAM/[methyl-3H]SAM assessed as reduction of methylation in biotinylated hemimethylated DNA duplex at 32 uM after 1 hr by scintillation counting method relative to control
OUTCOME_MEASURE: inhibition (%)

Below are worked cases with known answers.
c1ccc2c(CCCNc3ncnc4cc(OCC5CCN(CCNc6ccnc7ccccc67)CC5)ccc34)cccc2c1	100
c1ccc2c(NCCNc3ncnc4cc(OCC5CCN(CCNc6ccnc7ccccc67)CC5)ccc34)cccc2c1	86
NS(=O)(=O)c1ccc(CCNc2ncnc3cc(OCC4CCN(CCNc5ccnc6ccccc56)CC4)ccc23)cc1	59
c1ccc(CN2CCN(CCNc3ncnc4cc(OCC5CCN(CCNc6ccnc7ccccc67)CC5)ccc34)CC2)cc1	0
CN(CCN1CCC(COc2ccc3c(NCCCc4ccccc4)ncnc3c2)CC1)c1ccnc2ccccc12	10
c1ccc(CCCNc2ncnc3cc(OCC4CCN(CCNc5ccc6ncccc6c5)CC4)ccc23)cc1	0

(A) Cc1cc(NCCN2CCC(COc3ccc4c(NCCCc5ccccc5)ncnc4c3)CC2)ccn1
(B) c1ccc(CN2CCC(Nc3ncnc4cc(OCC5CCN(CCNc6ccnc7ccccc67)CC5)ccc34)CC2)cc1
Problem: Just curious, which one has the larger inhibition reading, A or B ? Lab note: record the label of whichever item you select.
Solution: B
(B: 65%, A: 13%)

(a) c1ccc(CCCNc2ncnc3cc(OCC4CCN(CCNc5cccc6ncccc56)CC4)ccc23)cc1
(b) Clc1ccc2c(NCCN3CCC(COc4ccc5c(NCCCc6ccccc6)ncnc5c4)CC3)ccnc2c1
(c) Cn1ccc2cc(NCCN3CCC(COc4ccc5c(NCCCc6ccccc6)ncnc5c4)CC3)ccc21
(d) c1ccc(NCCNc2ncnc3cc(OCC4CCN(CCNc5ccnc6ccccc56)CC4)ccc23)cc1
Problem: Put these in order: smallest inhibition first, largest last. Submit the labels in the order that the ranking request calls for.
Solution: a, c, b, d
(a: 0%, c: 21%, b: 33%, d: 61%)

====

target: DNA (cytosine-5)-methyltransferase 3A (Homo sapiens, UniProt Q9Y6K1); experiment: Inhibition of human DNMT3A catalytic domain using AdoMet assessed as reduction of methylation in 5'-biotin/3' 6-carboxyfluorescein labeled DNA duplex at CpG site at 32 uM after 1 hr by fluorescence assay relative to control
Sequence (Q9Y6K1 whole entry, looked up, the tested form may be a part): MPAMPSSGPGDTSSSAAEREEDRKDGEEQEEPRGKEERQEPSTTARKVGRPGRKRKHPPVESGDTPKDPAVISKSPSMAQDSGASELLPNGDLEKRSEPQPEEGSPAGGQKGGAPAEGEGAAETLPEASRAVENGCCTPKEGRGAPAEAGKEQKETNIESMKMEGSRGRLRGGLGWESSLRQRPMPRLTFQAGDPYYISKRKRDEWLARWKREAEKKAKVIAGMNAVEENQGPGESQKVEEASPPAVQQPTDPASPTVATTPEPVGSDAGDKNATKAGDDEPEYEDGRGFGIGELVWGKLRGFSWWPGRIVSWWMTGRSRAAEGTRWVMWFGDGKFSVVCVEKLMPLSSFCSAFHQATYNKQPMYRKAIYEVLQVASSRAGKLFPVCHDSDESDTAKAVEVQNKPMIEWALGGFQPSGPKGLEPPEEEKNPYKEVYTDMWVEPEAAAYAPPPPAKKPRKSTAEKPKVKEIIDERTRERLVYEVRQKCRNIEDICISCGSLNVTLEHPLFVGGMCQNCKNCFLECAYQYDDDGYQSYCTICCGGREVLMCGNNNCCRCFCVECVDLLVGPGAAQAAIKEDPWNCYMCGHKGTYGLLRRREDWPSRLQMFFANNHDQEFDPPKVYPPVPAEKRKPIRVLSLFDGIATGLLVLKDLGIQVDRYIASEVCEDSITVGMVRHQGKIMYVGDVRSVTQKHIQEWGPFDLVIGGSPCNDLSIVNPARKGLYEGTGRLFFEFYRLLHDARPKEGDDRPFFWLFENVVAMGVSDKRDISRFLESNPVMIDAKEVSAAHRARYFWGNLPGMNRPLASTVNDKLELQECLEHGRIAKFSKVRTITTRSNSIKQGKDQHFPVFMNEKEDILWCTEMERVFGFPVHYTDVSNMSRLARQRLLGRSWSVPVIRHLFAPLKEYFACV
OUTCOME_MEASURE: inhibition (%)

Below are worked cases with known answers.
Cc1cc(NCCN2CCC(COc3ccc4c(NCCCc5ccccc5)ncnc4c3)CC2)ccn1	58
c1ccc(CN2CCN(CCNc3ncnc4cc(OCC5CCN(CCNc6ccnc7ccccc67)CC5)ccc34)CC2)cc1	88

(P) Nc1ccc(CCNc2ncnc3cc(OCC4CCN(CCNc5ccnc6ccccc56)CC4)ccc23)cc1
(Q) c1ccc(CCCNc2ncnc3cc(OCC4CCN(CCNc5ccc6ccccc6c5)CC4)ccc23)cc1
(R) Nc1ccc(NCCN2CCC(COc3ccc4c(NCCCc5ccccc5)ncnc4c3)CC2)cc1
Problem: Put these in order: smallest inhibition first, largest last. Submit the labels in the order that the ranking request calls for.
Solution: Q, R, P

====

target: DNA (cytosine-5)-methyltransferase 1 (Homo sapiens, UniProt P26358); experiment: Inhibition of full length His-tagged human DNMT1 using SAM/[methyl-3H]SAM assessed as reduction of methylation in biotinylated hemimethylated DNA duplex at 100 uM after 1 hr by scintillation counting method relative to control
Sequence (P26358 whole entry): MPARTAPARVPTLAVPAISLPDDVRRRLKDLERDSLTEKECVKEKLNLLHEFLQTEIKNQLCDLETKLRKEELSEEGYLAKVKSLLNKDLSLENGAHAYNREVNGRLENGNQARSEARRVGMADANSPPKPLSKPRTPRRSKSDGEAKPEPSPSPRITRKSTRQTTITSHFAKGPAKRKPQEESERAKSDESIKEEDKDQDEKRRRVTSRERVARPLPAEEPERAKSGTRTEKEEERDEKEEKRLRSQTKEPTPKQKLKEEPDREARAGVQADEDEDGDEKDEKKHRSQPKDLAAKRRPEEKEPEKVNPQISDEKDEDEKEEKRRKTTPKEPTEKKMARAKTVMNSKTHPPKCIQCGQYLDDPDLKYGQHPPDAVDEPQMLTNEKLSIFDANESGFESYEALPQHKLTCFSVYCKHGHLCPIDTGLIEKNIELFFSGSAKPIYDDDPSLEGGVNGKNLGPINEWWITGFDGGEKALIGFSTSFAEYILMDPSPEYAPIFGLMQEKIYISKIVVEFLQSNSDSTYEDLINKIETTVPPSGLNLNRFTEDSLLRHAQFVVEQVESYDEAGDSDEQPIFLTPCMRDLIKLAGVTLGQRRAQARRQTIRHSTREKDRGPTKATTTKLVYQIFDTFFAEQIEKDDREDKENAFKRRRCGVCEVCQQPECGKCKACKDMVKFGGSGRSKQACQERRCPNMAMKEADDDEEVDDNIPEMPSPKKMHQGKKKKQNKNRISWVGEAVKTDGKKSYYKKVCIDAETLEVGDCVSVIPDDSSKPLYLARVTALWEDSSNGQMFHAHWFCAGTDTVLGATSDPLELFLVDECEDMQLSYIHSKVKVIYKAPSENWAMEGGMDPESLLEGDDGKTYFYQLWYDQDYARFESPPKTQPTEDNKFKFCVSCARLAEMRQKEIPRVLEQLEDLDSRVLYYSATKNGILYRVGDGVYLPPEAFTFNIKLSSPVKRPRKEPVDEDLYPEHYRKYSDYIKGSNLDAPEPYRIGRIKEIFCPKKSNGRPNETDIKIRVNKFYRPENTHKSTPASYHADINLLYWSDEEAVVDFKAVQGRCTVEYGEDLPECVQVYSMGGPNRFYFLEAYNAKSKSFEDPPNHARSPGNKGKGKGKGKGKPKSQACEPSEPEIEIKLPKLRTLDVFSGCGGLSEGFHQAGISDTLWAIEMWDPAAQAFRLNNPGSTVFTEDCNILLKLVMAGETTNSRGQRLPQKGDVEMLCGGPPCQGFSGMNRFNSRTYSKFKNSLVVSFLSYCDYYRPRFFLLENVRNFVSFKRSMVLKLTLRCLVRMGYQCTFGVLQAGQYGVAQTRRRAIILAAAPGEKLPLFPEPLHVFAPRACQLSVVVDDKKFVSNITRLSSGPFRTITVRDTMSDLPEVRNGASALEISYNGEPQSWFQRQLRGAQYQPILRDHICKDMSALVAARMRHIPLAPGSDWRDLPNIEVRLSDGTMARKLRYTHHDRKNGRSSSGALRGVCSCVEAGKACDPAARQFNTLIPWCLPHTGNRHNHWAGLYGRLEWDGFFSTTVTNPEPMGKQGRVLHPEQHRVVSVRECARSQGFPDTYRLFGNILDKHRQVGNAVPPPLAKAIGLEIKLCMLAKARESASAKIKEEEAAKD
OUTCOME_MEASURE: inhibition (%)

Below are worked cases with known answers.
O=[N+]([O-])c1ccc(CCNc2ncnc3cc(OCC4CCN(CCNc5ccnc6ccccc56)CC4)ccc23)cc1	72
O=c1c2ccc(OCC3CCN(CCNc4ccnc5ccccc45)CC3)cc2ncn1CCCc1ccccc1	90
c1ccc(CN2CCC(Nc3ncnc4cc(OCC5CCN(CCNc6ccnc7ccccc67)CC5)ccc34)CC2)cc1	81
Oc1cc2nccc(NCCN3CCC(COc4ccc5c(NCCCc6ccccc6)ncnc5c4)CC3)c2cc1O	81
Nc1ccc(CCNc2ncnc3cc(OCC4CCN(CCNc5ccnc6ccccc56)CC4)ccc23)cc1	97
Nc1ncnc2cc(OCC3CCN(CCNc4ccnc5ccccc45)CC3)ccc12	99

(a) c1ccc(CNc2ncnc3cc(OCC4CCN(CCNc5ccnc6ccccc56)CC4)ccc23)cc1
(b) Clc1ccc(CCNc2ncnc3cc(OCC4CCN(CCNc5ccnc6ccccc56)CC4)ccc23)cc1
(c) c1ccc(CCCNc2ncnc3cc(OCC4CCN(CCNc5cnc6ccccc6c5)CC4)ccc23)cc1
Problem: Put these in order: smallest inhibition first, largest last. Submit the labels in the order that the ranking request calls for.
Solution: c, a, b
